The reported numbers originate from patent US20230357364A1.

# assayed_system: SARS-CoV-2 RBD (RBD-2) (SARS-CoV-2)
# protocol_description: flow, HeLa-ACE2, mAb:RBD=2:1
measurement_kind: % inhibition of RBD binding to hACE2 (%)
Express it in %; write the number only.

Query :: Consider the binder shown here: L12.cP08D10 (antibody, V domains shown, human IgG1) VH: EVQLVQSGAEVKKPGASVKVSCKASGYIFSGYYMHWVRQAPGQGLEWMGWISPDSGGTNYAQNFQGRVTMTRDTSISTGYMELSRLRSDDTAMYYCARGPRYSGTYFDYWGQGVLVTVSS VL: QSVLTQPASVSGSPGQSITISCTGTSSDVGGYNYVSWYQQHPGKVPKLMIYDVSNRPSGVSNRFSGSKSGNTASLTISGLQAEDEADYYCSSYTSSSAQVFGGGTKLTVL What is its recorded % inhibition of RBD binding to hACE2?
Result :: 6.1
